target: Mcl-1 (Mus musculus, UniProt P97287); assay: Binary KTGS incubation (1 TA x 1 SZ) with Mcl-1, LC-MS/MS; settings: binary incubation mixtures with and without Mcl-1
Sequence (P97287 whole entry): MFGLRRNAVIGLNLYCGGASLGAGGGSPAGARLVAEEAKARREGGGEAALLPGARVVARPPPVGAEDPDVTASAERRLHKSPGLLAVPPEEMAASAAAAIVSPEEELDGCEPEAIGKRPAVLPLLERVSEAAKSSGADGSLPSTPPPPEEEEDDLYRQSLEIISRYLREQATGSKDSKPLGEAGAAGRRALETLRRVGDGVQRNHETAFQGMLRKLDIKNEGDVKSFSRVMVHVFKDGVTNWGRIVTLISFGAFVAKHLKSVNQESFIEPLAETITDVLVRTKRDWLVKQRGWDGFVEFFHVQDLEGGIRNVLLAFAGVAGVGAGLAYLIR
quantityMeasured: Amplification coefficient 1TA x 1SZ

* O=C(NS(=O)(=O)c1ccc(CN(CCSc2ccccc2)Cc2ccc3c(c2)OCO3)cc1)c1ccc(OC(F)(F)F)cc1 [SZ31TA8] | 4
* O=C(NS(=O)(=O)c1ccc(NCCSc2ccccc2)c([N+](=O)[O-])c1)c1ccc2c(ccn2Cc2ccc(C(F)(F)F)cc2C(F)(F)F)c1 [SZ4TA30] | 4
* CC(C)(C)c1ccc(-c2ccc(S(=O)(=O)NC(=O)c3ccc4c(ccn4Cc4ccc(C(F)(F)F)cc4C(F)(F)F)c3)cc2)cc1 [SZ11TA30] | 7
* O=C(NS(=O)(=O)c1ccc(CN(CCSc2ccccc2)Cc2c(F)cccc2Cl)cc1)c1ccc(-c2ccc(F)cc2)cc1 [SZ15TA14] | 6
* COc1cc(OC)cc(C(=O)NS(=O)(=O)c2ccc(CN(CCSc3ccccc3)Cc3ccc(S(=O)(=O)N=[N+]=[N-])cc3)cc2)c1 [SZ9TA5] | 4.5
* O=C(NS(=O)(=O)c1ccc(CN(CCSc2ccccc2)Cc2c(F)cccc2Cl)cc1)c1ccc(OC(F)(F)F)cc1 [SZ15TA8] | 6
* O=C(NS(=O)(=O)c1ccc(CN(CCSc2ccccc2)Cc2c(F)cccc2Cl)cc1)c1cccc2ccccc12 [SZ15TA7] | 9
* Cn1cc(C(=O)C2CCCCC2)c2cc(C(=O)NS(=O)(=O)c3ccc(CN(CCSc4ccccc4)Cc4ccc5c(c4)OCO5)cc3)ccc21 [SZ31TA40] | 8
* CC1(C)CCN(c2ccc(C(=O)NS(=O)(=O)c3ccc(CNc4cccc([N+](=O)[O-])c4)cc3)cc2)CC1 [SZ12TA2] | 4
* NS(=O)(=O)c1ccc(CN(CCSc2ccccc2)Cc2ccc(S(=O)(=O)NC(=O)c3ccc4oc(-c5ccccc5)cc4c3)cc2)cc1 [SZ10TA41] | 40
